- method-notes: antagonists of CRF-BP/CRF-R2 complex, primary screen, cell-based, HEK293, calcium dye fluorescence, uHTS (AID 588475)
- condition-set: CRF-induced calcium fluorescence, at 11.8 µM, active compounds read high
Among all 350,000 compounds or so, about 2,100 (0.6%) were called active. For the sample, actives were picked, then their nearest neighbours and some compounds at random.
measurement-type: inhibition (%)

>>> print(df.to_string())
                                    compound  recorded_result
 0  CCc1ccc(N2CC(C(=O)N3CCCCCC3)CC2=O)cc1 (stereo unspecified)            -21.4
 1      Cc1ccc(C(=O)Nc2nnc(C3=COCCO3)o2)cc1C             51.4
 2  CC1CC(C)CN(C(=O)C2CC(=O)N(c3ccc(F)cc3)C2)C1 (stereo unspecified)            -0.72
 3               S=C(NCc1cccs1)Nc1ccc(Cl)cc1             8.34
 4  O=C(Nc1nnc(C2=COCCO2)o1)c1ccc([N+](=O)[O-])s1            -4.65
 5       FC(F)(F)Oc1ccc(NC(=S)NCc2ccccc2)cc1             44.6
 6  CCNC(=O)NNC(=O)C1CC(c2cccs2)=NO1 (stereo unspecified)             0.63
 7  COc1cc(-c2nnc(NC(=O)C3=COCCO3)o2)cc(OC)c1OC            -9.37
 8  CC1Cc2ccccc2N1C(=O)Cn1cnc2ccccc2c1=O (stereo unspecified)              0.2
 9  O=C(CCCn1c(=O)c2sccc2n(CC(=O)NCC2CCCO2)c1=O)NCc1ccco1 (stereo unspecified)            -17.3
10  CCOC(=O)N1CCN(C(=O)Cn2cnc3ccccc3c2=O)CC1             72.2
